target: α4β7 integrin (Homo sapiens (Human), UniProt P13612+P26010); test: α4β7 Integrin Cell Capture Assay; format: cell-based; conditions: Table 1; capture of α4β7 expressing RPM18866 cells on MadCAM-1 extracellular domain-coated plate
Sequence (P13612 34-1032): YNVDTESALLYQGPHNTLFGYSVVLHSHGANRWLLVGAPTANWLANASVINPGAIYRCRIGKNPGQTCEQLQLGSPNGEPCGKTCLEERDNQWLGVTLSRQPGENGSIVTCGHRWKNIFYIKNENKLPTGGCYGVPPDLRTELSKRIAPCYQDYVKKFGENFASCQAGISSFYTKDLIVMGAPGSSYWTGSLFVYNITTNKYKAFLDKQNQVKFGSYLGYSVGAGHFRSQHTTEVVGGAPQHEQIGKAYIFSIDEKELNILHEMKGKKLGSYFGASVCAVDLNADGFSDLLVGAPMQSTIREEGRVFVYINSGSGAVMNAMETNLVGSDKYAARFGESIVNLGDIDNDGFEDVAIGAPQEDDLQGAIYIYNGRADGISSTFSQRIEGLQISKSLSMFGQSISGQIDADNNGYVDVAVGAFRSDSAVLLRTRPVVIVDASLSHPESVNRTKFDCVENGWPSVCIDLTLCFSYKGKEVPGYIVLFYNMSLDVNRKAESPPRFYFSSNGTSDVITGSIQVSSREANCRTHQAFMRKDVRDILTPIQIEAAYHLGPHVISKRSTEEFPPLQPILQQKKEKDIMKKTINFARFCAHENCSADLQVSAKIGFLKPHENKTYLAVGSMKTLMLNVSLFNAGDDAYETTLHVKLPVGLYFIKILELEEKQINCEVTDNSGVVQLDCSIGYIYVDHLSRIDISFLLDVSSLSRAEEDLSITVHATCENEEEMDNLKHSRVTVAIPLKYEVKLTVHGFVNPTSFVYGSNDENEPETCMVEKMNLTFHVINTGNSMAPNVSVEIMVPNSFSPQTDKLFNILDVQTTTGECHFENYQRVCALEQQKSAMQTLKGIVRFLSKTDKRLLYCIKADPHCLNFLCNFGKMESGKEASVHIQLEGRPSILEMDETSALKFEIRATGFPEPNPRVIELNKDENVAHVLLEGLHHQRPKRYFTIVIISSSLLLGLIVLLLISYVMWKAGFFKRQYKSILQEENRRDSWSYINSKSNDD
Sequence (P26010 20-798): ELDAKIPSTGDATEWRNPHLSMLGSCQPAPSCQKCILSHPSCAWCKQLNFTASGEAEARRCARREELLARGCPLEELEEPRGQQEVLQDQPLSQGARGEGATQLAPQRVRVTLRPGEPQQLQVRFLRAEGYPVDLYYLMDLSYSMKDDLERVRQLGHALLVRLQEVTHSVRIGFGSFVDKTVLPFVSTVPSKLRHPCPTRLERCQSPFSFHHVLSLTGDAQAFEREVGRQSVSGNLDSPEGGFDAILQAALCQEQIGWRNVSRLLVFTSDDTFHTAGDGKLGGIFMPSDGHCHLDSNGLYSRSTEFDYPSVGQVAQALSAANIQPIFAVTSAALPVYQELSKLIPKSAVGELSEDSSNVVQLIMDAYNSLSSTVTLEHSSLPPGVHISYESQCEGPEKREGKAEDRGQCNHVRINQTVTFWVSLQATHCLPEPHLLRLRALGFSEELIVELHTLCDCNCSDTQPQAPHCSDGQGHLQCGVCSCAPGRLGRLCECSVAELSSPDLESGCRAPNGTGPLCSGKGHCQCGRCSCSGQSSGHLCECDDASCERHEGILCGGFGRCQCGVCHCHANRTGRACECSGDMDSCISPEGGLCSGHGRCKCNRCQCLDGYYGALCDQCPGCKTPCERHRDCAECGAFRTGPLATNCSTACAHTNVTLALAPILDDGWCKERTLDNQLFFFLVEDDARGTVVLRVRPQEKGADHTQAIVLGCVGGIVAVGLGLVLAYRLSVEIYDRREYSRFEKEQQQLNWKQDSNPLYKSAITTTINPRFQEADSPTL
measuredMetric: EC50 (nM)
Could you give me the number in nM? Just the number is fine.

Request: Lab request: please report EC50 under test system α4β7 integrin (Homo sapiens (Human), UniProt P13612+P26010) for Cn1cc(C(F)(F)F)cc(-c2ccc(C[C@H](NC(=O)c3c(F)cc(N4CCOC[C@@H]4C(F)(F)F)cc3F)C(=O)O)c3cccnc23)c1=O
Result: 1.4

Request: Quick check: EC50 on α4β7 integrin (Homo sapiens (Human), UniProt P13612+P26010), item Cc1cc(C)n(C)c(=O)c1-c1ccc(C[C@H](NC(=O)c2c(F)cc(N3CCOC[C@@H]3C(F)(F)F)cc2F)C(=O)O)c2cccnc12 ?
Result: 0.3

Request: Query for α4β7 integrin (Homo sapiens (Human), UniProt P13612+P26010): what EC50 does the record show for O=C(N[C@@H](Cc1ccc(-c2c(Cl)cncc2Cl)c2ncccc12)C(=O)O)c1c(F)cccc1F ?
Result: 186

Request: Reported EC50 for α4β7 integrin (Homo sapiens (Human), UniProt P13612+P26010), given CCCNc1cc(F)c(C(=O)N[C@@H](Cc2ccc(-c3c(C(F)(F)F)cc(C)n(C)c3=O)c3ncccc23)C(=O)O)c(F)c1 ?
Result: 3.2

---

Kindly supply the reported EC50 values for the records listed here.
target: α4β7 integrin (Homo sapiens (Human), UniProt P13612+P26010); assay: α4β7 Integrin Cell Capture Assay; assay type: cell-based; settings: Table 1; capture of α4β7 expressing RPM18866 cells on MadCAM-1 extracellular domain-coated plate
Please give a number only; it is taken to be in nM.

Request: # lookup: EC50 of Cc1noc(C)c1-c1ccc(C[C@H](NC(=O)c2c(F)cc(NS(=O)(=O)c3ccc(-c4ccnc(F)c4)cc3)cc2F)C(=O)O)c2cccnc12
Result: 27.4

Request: Which EC50 reading was recorded for the compound CC[C@@H](Nc1cc(F)c(C(=O)N[C@@H](Cc2ccc(-n3c(=O)c4cc(N(C)C)ccc4n(C)c3=O)c3ncccc23)C(=O)O)c(F)c1)C(F)(F)F ?
Result: 1

Request: # lookup: EC50 of CCOCc1cc(OC)c(-c2ccc(C[C@H](NC(=O)c3c(F)cccc3F)C(=O)O)c3cc(C(F)(F)F)cnc23)c(OC)c1
Result: 69.6

Request: May I ask what EC50 has been recorded for CC[C@@H](Nc1cc(F)c(C(=O)N[C@@H](Cc2ccc(-c3c(C(F)(F)F)cc(C)n(C)c3=O)c3ncccc23)C(=O)O)c(F)c1)C(F)(F)F (single isomer, unassigned) [Example 147] ?
Result: 1.9

Request: EC50 lookup needed for Cc1cc(C(F)(F)F)c(-c2ccc(C[C@H](NC(=O)c3c(F)cc(N4CCO[C@H](C)[C@@H]4C(F)(F)F)cc3F)C(=O)O)c3cccnc23)c(=O)n1C , thanks.
Result: 0.4

---

biological target: α4β7 integrin (Homo sapiens (Human), UniProt P13612+P26010); assay: α4β7 Integrin Cell Capture Assay; type: cell-based; settings: Table 2; capture of α4β7 expressing RPM18866 cells on MadCAM-1 extracellular domain-coated plate
Output Met for records whose EC50 is lower than 10 nM, Not met for records at or above 10 nM.

Request: Lab note: confirm whether the reported EC50 for this molecule is below 10 nM, equality not counting. molecule: CC(C)c1cccnc1-c1ccc(C[C@H](NC(=O)c2c(F)cc(N3CCOC[C@@H]3C(F)(F)F)cc2F)C(=O)O)c2cccnc12
Result: Met

Request: Given CCOCc1cc(OC)c(-c2ccc(C[C@H](NC(=O)c3c(F)cc(NC(C)=O)cc3F)C(=O)O)c3cccnc23)c(OC)c1 , is recorded EC50 strictly lower than 10 nM?
Result: Not met

Request: Given Nc1ccc(C(F)(F)F)c(-c2ccc(C[C@H](NC(=O)c3c(F)cc(N4CCOC[C@@H]4C(F)(F)F)cc3F)C(=O)O)c3cccnc23)n1 , is recorded EC50 strictly lower than 10 nM?
Result: Met

Request: Input N#Cc1ccc(-c2ccc(C[C@H](NC(=O)c3c(F)cc(N4CCCCC4)cc3F)C(=O)O)c3cccnc23)c(Cl)c1 ; condition: EC50 strictly below 10 nM. Does it hold?
Result: Not met

Request: Consider O=C(N[C@H](C(=O)O)[C@@H](O)c1ccc(-c2c(Cl)cc(F)cc2Cl)c2ncccc12)c1c(F)cccc1F . Does its EC50 lie strictly below 10 nM?
Result: Not met

Request: Just wondering, is EC50 of CC[C@@H](Nc1cc(F)c(C(=O)N[C@@H](Cc2ccc(-c3c(C(F)F)cc(C)n(C)c3=O)c3ncccc23)C(=O)O)c(F)c1)C(F)(F)F below 10 nM?
Result: Met

Request: Consider N#Cc1ccc(-c2ccc(C[C@H](NC(=O)c3c(F)cc(N[C@@H]4CCCCC4(F)F)cc3F)C(=O)O)c3cccnc23)c(Cl)c1 . Does its EC50 lie strictly below 10 nM?
Result: Not met

Request: Quick check: EC50 of O=C(N[C@@H](Cc1ccc(-c2ncc3ccccc3c2Br)c2ncccc12)C(=O)O)c1c(Cl)cccc1Cl under 10 nM?
Result: Met

Request: Quick check: EC50 of C[C@H](O)Cc1cc(F)c(C(=O)N[C@@H](Cc2ccc(-c3ccc(C#N)cc3Cl)c3ncccc23)C(=O)O)c(F)c1 under 10 nM?
Result: Not met

Request: Check if EC50 falls below 10 nM for N#Cc1ccc(-c2ccc(C[C@H](NC(=O)c3c(Cl)cc4cc[nH]c4c3Cl)C(=O)O)c3cccnc23)c(Cl)c1 .
Result: Not met

Request: Please let me know if N#Cc1ccc(-c2ccc(C[C@H](NC(=O)c3c(F)cc(N[C@H](C4CCC4)C(F)(F)F)cc3F)C(=O)O)c3cccnc23)c(Cl)c1 shows EC50 below 10 nM.
Result: Not met

Request: Lab note: EC50 threshold 10 nM. Does this molecule come in strictly under it? CCOCc1cc(OC)c(-c2ccc(C[C@H](NC(=O)c3c(F)cc(CS(=O)(=O)c4ccccc4)cc3F)C(=O)O)c3cccnc23)c(OC)c1
Result: Met

---

molecular target: α4β7 integrin (Homo sapiens (Human), UniProt P13612+P26010); experiment: α4β7 Integrin Cell Capture Assay; assay type: cell-based; settings: Table 2; capture of α4β7 expressing RPM18866 cells on MadCAM-1 extracellular domain-coated plate
measuredMetric: log10 EC50 (log10 of the value in nM)
Form field - Quantity: EC50; Unit: nM; Scale: log10

Request: State the recorded log10 EC50 for this entry: CCc1nc(-c2ccc(C[C@H](NC(=O)c3c(F)cc(N[C@H](CC)C(F)(F)F)cc3F)C(=O)O)c3cccnc23)c(=O)n(C)c1CC [Example 176]
Result: -0.05

Request: Recorded log10 EC50 of CC[C@@H](Nc1cc(F)c(C(=O)N[C@@H](Cc2ccc(-c3ncc4c(n3)CCC4)c3ncccc23)C(=O)O)c(F)c1)C(F)(F)F [Example 311] , please.
Result: 1.09

Request: GET /values?readout=log10 EC50&item= CC(O)(c1cc(F)c(C(=O)N[C@@H](Cc2ccc(-c3ccc(C#N)cc3Cl)c3ncccc23)C(=O)O)c(F)c1)C(F)(F)F (stereo partly drawn) [Example 280]
Result: 1.94

Request: GET /values?readout=log10 EC50&item= Cc1cc(N2CCOC[C@@H]2C(F)(F)F)cc(Cl)c1C(=O)N[C@@H](Cc1ccc(-c2c(C(F)(F)F)cc(C)n(C)c2=O)c2ncccc12)C(=O)O [Example 160]
Result: -0.52

Request: log10 EC50 lookup needed for CC[C@@H](N(c1cc(F)c(C(=O)N[C@@H](Cc2ccc(-c3c(C(F)(F)F)cc(C)n(C)c3=O)c3ncccc23)C(=O)O)c(F)c1)C1CC1)C(F)(F)F [Example 172] , thanks.
Result: -0.30

Request: GET /values?readout=log10 EC50&item= CC[C@@H](Nc1cc(F)c(C(=O)N[C@@H](Cc2ccc(-c3c(C(F)(F)F)cc(C4CC4)n(C)c3=O)c3ncccc23)C(=O)O)c(F)c1)C(F)(F)F [Example 163]
Result: -0.40

---

target: α4β7 integrin (Homo sapiens (Human), UniProt P13612+P26010); test: α4β7 Integrin Cell Capture Assay; format: cell-based; details: Table 1; capture of α4β7 expressing RPM18866 cells on MadCAM-1 extracellular domain-coated plate
Would you kindly list pEC50 for each of these molecules?
Conceptually, pEC50 converts a concentration in mol/L into minus its log10.

Request: Which pEC50 value belongs to N#Cc1ccc(-c2ccc(C[C@H](NC(=O)c3c(F)cc(C(=O)O)cc3F)C(=O)O)c3cccnc23)c(Cl)c1 [Example 25] ?
Result: 8.48

Request: Which pEC50 value is on record for Cc1c(C(F)(F)F)cn(C)c(=O)c1-c1ccc(C[C@H](NC(=O)c2c(F)cc(N3CCOC[C@@H]3C(F)(F)F)cc2F)C(=O)O)c2cccnc12 [Example 106] ?
Result: 9.52

Request: Entry N#Cc1ccccc1-c1ccc(C[C@H](NC(=O)c2c(F)cc(NS(=O)(=O)c3ccc(-c4ccnc(F)c4)cc3)cc2F)C(=O)O)c2cccnc12 [Example 59] has what pEC50?
Result: 8.49

Request: Which value of pEC50 has been reported for CN(C)c1ccnc(-c2ccc(C[C@H](NC(=O)c3c(F)cc(N4CCOC[C@@H]4C(F)(F)F)cc3F)C(=O)O)c3cccnc23)c1C(F)(F)F [Example 105] in the records?
Result: 8.39

Request: Tell me the measured pEC50 of O=C(N[C@@H](Cc1ccc(-c2c(Cl)cc(F)cc2Cl)c2ncc(F)cc12)C(=O)O)c1c(F)cccc1F [Example 32] , please.
Result: 7.12

Request: Data request, read-out pEC50, for CC[C@@H](Nc1cc(F)c(C(=O)N[C@@H](Cc2ccc(-c3cc4ccncc4n(C)c3=O)c3ncccc23)C(=O)O)c(F)c1)C(F)(F)F [Example 110]
Result: 9.52
